System: BALB/c mice
Assay: In vivo delivery of luciferase mRNA (Fluc mRNA) by lipid nanoparticles, in vivo imaging
Conditions: intramuscular administration, 0.5 mg/kg Fluc mRNA, after 12 hours
experimental endpoint: Fluorescence intensity (expression intensity of Fluc mRNA)
Field format: numeric only.

CCCCCCCCCCCCSc1nc(NCCCN2CCOCC2)nc(SCCCCCCCCCCC)n1 [Compound S11S12D8]: 4.7E+06
CCCCCCCCCCCCCCCCSc1nc(NCCN2CCN(C)CC2)nc(SCCCCCCCCC)n1 [Compound S9S16D5]: 5.2E+06
CCCCC/C=C\C/C=C\CCCCCCCCC(CCCCCCCC/C=C\C/C=C\CCCCC)OC(=O)CCCN(C)C [DLin-MC3, reference compound]: 2.7E+07

What value of Fluorescence intensity (expression intensity of Fluc mRNA) has been recorded for this entry: CCCCCCCCCCCCCCCCSc1nc(NCCCCCCCC)nc(NCC2CCN(C)CC2)n1 [Compound S16N8D10] 3.9E+06

Follow-up item: CCCCCCCCCCCCCCCSc1nc(NCCCCCCCCCCC)nc(NCCN2CCN(C)CC2)n1 [Compound S15N11D5] 3.7E+06

What do you have for CCCCCCCCCCCCCCCCCCSc1nc(NCCN2CCCC2)nc(SCCCCCCC)n1 [Compound S7S18D3] ? 8.7E+07

---

System: HEK293 cells
Experiment: Preliminary screening as DNA vectors, GFP transfection of HEK293 cells
Assay type: cell-based
Conditions: amino lipid/DOPE liposome with 75 ng plasmid DNA (psin-EGFP-IRES-Puro); number of GFP-expressing cells divided by total nuclei (Hoechst)
Decision: Absolute DNA transfection efficiency in HEK293 cells compared against 20%; not below it gives true, below it gives false.

Solved cases below.
CCCCCCCCCCCNc1nc(NCCCN(C)C)nc(SCCCCCCCCCCC)n1: true
CCCCCCCCCCCCCCCSc1nc(NCCCCCCCCCCCC)nc(NCCN2CCCCC2)n1: false
CCCCCCCCCCCCCCCNc1nc(NCCN2CCCC2)nc(SCCCCCCCCCCC)n1: true
CCCCCCCCCCCCCCCCCCSc1nc(NCCCCCCCCCCCC)nc(NCCN2CCCC2)n1: false
CCCCCCCCCCCNc1nc(NCC2CCN(C)CC2)nc(SCCCCCCCC)n1: true

Entry "CCCCCCCCCCSc1nc(NCCCN2CCN(C)CC2)nc(SCCCCCCCC)n1" : is its Absolute DNA transfection efficiency in HEK293 cells no less than 20%? true

Try the compound CCCCCCCCCCCCN(CCCCCCCCCCCC)c1nc(NCCN2CCOCC2)nc(SCCCCCCCCCCC)n1 [S11^2N12 D2] false

// next record CCCCCCCCCNc1nc(NCCN(C)C)nc(SCCCCCCCC)n1 [S8N9 D1] true

And the next one, "CCCCCCCCCCCCSc1nc(NCCCCCCCCC)nc(NCCN2CCCCC2)n1" ? false

---

Tested on: HEK293 cells
Assay: Preliminary screening as mRNA vectors, EGFP mRNA transfection of HEK293 cells
Format: cell-based
Settings: EGFP mRNA 50 ng per well, 96-well plates; percentage of GFP fluorescent cells relative to total number of cells (Hoechst)
Recorded Absolute mRNA transfection efficiency in HEK293 cells by entry
Kindly report the value followed by its unit.

Some compounds with recorded Absolute mRNA transfection efficiency in HEK293 cells:
CCCCCCCCCCCCCCCCCCNc1nc(NCCCN2CCOCC2)nc(SCCCCCCCCCCCC)n1 [Compound D8S12N18]: 1.1%
CCCCCCCCCCCCCCCCCCNc1nc(NCCN2CCN(C)CC2)nc(SCCCCCCCCCCCCCC)n1 [Compound D5S14N18]: 0.6%

Provide value of Absolute mRNA transfection efficiency in HEK293 cells for this record tested with HEK293 cells: CCCCCCCCCSc1nc(NCCCCCCCC)nc(NCCN2CCCCC2)n1 [Compound D4S9N8] 6.6%

Follow-up entry: CCCCCCCCCNc1nc(NCCN(CC)CC)nc(SCCCCCCC)n1 [Compound D7S7N9] 10.5%
